Molecular target: angiotensin-converting enzyme (Homo sapiens)
Construct: purchased Dojindo Laboratories ACE Kit-WST
Sequence (P12821 30-1306, species assumed): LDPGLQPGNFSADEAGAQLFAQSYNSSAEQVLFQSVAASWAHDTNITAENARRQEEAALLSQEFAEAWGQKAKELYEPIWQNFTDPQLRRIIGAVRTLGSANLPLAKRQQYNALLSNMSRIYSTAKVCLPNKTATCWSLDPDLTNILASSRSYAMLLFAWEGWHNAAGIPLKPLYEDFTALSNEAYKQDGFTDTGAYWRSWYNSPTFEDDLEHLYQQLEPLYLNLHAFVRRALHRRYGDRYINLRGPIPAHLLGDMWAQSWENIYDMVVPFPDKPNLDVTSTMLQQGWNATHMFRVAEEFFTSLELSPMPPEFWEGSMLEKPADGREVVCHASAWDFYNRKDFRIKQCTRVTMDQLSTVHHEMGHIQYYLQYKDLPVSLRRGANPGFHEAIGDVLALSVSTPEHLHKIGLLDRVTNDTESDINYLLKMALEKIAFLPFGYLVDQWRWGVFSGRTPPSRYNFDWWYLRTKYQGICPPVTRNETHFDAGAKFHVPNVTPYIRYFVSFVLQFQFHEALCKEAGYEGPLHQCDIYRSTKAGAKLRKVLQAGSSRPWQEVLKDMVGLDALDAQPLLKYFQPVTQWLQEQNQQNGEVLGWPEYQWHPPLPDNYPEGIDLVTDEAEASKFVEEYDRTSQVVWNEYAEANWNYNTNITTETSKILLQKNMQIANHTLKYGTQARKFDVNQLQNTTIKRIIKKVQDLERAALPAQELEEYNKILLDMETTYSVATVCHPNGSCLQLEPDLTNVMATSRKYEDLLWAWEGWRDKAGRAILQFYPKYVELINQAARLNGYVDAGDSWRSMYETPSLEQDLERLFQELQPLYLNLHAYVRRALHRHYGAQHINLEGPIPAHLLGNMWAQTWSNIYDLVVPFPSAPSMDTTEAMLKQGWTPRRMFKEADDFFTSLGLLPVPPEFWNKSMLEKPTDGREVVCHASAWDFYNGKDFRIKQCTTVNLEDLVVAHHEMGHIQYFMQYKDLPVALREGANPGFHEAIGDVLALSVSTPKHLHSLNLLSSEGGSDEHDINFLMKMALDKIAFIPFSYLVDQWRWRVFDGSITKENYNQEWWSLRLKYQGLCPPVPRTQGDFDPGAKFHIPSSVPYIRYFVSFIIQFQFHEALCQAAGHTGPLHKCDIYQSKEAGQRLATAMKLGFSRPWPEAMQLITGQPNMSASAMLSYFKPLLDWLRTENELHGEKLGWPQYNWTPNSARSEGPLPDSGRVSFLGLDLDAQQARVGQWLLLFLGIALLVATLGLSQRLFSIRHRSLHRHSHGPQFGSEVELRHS
Test: Angiotensin I-converting enzyme-inhibiting activity by ACE Kit-WST (Dojindo Laboratories), residual activity
Format: biochemical
Conditions: amino acid alone, 1000 μM; no cyclic dipeptide
parameter: remaining activity at 1000 µM (%)

[[record]]
chem_smiles = "C[C@@H](O)[C@H](N)C(=O)O"
experimental_value = 86.6

[[record]]
chem_smiles = "N[C@@H](Cc1ccc(O)cc1)C(=O)O"
experimental_value = 94

[[record]]
chem_smiles = "N=C(N)NCCC[C@H](N)C(=O)O"
experimental_value = 84.8

[[record]]
chem_smiles = "CC(C)C[C@H](N)C(=O)O"
experimental_value = 83.2

